Target: GSPT1 (Homo sapiens, UniProt P15170+Q96SW2)
Sequence (P15170 whole entry): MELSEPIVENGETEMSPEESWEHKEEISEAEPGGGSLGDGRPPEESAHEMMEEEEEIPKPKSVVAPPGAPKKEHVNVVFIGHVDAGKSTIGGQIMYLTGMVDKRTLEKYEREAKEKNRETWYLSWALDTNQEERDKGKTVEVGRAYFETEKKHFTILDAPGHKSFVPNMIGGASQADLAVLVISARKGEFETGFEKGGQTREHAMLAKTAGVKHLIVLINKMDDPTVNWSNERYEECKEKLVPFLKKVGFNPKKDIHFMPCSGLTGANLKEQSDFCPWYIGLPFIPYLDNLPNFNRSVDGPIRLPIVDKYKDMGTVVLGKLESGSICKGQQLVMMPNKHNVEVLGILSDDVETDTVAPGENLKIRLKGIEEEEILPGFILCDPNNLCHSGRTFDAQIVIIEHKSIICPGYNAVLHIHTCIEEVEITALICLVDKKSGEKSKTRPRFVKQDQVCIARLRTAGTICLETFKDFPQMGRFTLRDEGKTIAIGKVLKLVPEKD
Sequence (Q96SW2 whole entry): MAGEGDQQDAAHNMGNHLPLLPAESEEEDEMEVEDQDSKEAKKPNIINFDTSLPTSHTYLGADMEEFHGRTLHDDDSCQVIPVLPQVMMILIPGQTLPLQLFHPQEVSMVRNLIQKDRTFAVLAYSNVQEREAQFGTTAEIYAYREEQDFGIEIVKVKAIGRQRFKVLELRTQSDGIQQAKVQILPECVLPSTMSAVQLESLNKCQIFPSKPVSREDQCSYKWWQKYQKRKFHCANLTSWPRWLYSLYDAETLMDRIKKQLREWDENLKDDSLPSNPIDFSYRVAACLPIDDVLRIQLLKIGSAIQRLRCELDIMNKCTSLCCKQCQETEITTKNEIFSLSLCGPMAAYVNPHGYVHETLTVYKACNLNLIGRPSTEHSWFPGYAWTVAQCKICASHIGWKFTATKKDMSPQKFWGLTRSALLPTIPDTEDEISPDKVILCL
Sequence (Q16531 whole entry partner): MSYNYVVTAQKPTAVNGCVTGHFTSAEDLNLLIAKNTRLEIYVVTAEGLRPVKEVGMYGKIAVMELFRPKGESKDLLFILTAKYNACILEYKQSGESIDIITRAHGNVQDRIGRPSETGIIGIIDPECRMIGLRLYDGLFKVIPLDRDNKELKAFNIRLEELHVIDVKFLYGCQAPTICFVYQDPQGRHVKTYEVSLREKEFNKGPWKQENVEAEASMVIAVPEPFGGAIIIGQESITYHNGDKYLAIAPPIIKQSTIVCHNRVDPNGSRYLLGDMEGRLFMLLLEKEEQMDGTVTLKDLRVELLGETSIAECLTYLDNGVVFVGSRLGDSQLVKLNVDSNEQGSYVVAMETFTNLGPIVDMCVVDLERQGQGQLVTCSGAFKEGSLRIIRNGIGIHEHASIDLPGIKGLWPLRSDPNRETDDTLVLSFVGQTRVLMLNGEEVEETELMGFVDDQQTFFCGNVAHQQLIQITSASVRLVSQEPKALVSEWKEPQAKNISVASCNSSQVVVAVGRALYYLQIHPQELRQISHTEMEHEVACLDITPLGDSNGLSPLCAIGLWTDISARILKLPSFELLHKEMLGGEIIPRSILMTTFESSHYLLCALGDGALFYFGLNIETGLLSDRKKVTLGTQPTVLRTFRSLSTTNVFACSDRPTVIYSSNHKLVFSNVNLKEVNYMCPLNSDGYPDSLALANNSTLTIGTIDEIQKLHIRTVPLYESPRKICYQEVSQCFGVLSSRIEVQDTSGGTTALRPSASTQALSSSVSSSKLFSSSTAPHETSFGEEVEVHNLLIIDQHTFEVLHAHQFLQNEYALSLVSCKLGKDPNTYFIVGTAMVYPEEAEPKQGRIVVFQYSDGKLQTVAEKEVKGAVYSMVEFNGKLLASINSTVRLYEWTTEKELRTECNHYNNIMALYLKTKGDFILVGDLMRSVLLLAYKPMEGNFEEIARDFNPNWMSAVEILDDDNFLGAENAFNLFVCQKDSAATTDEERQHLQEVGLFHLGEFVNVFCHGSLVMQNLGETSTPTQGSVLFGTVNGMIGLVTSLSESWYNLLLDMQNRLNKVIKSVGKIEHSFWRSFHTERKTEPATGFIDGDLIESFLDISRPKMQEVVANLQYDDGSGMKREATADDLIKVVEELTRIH
Assay: HiBiT degradation assay, GSPT1, Procedure A
Type: cell-based
Parameters: HiBit-GSPT1 KI HEK293(LgBit) Cells; host or cells: HEK293(LgBit) knock-in cells
Conditions: six hours incubation
Examples of compounds with documented DC50 follow.
Quantity name: DC50

>>> df
                                   compound  quantity_name  observed
0  Cc1ccc(-c2c(-c3ccc4c(c3)CN(C3CCC(=O)NC3=O)C4=O)cnn2C)cn1 (centres unmarked)           DC50   < 25 nM
1  Cn1cnc(-c2ccc3c(c2)CN(C2CCC(=O)NC2=O)C3=O)c1-c1ccc(-c2ccc(C#N)cc2)cc1 (centres unmarked)           DC50   ≥ 25 nM
2  Cc1noc(-c2ccccc2)c1-c1ccc2c(c1)CN(C1CCC(=O)NC1=O)C2=O (centres unmarked)           DC50   ≥ 25 nM
3  Cn1cnc(-c2ccc3c(c2)CN(C2CCC(=O)NC2=O)C3=O)c1-c1ccc(-c2ccc(O)cc2)cc1 (centres unmarked)           DC50   ≥ 25 nM
4  Cc1ccc(-c2c(-c3ccc4c(c3)CN(C3CCC(=O)NC3=O)C4=O)ncn2C)s1 (centres unmarked)           DC50   < 25 nM
5  Cn1cnc(-c2ccc3c(c2)CN(C2CCC(=O)NC2=O)C3=O)c1-c1ccncc1 (centres unmarked)           DC50   ≥ 25 nM
6  Cn1cnc(-c2ccc3c(c2)CN(C2CCC(=O)NC2=O)C3=O)c1-c1ccccc1C1CC1 (centres unmarked)           DC50   ≥ 25 nM
7  Cn1ncc(-c2ccc3c(c2)CN(C2CCC(=O)NC2=O)C3=O)c1-c1ccc(Cl)cc1 (centres unmarked) [Example 174]           DC50   < 25 nM

* * *

Target: GSPT1 (Homo sapiens, UniProt P15170+Q96SW2)
Assay: HiBiT degradation assay, GSPT1, Procedure A
Format: cell-based
Design: HiBit-GSPT1 KI HEK293(LgBit) Cells; host or cells: HEK293(LgBit) knock-in cells
Settings: six hours
Listing: DC50 of selected compounds
Quantity name: DC50

In [3]: df
Out[3]:
                                    compound                         target_under_test  observed
 0  CN1CC=C(c2c(-c3ccc4c(c3)CN(C3CCC(=O)NC3=O)C4=O)ncn2C)CC1 (stereo not shown)  GSPT1 (Homo sapiens, UniProt P15170+Q96SW2)   ≥ 25 nM
 1  O=C1CCC(N2Cc3cc(-c4cnn(C(F)F)c4-c4ccccc4)ccc3C2=O)C(=O)N1 (stereo not shown)  GSPT1 (Homo sapiens, UniProt P15170+Q96SW2)   < 25 nM
 2  Cn1c(C2CCOCC2)nc(-c2ccc3c(c2)CN(C2CCC(=O)NC2=O)C3=O)c1C1CC1 (stereo not shown)  GSPT1 (Homo sapiens, UniProt P15170+Q96SW2)   ≥ 25 nM
 3  Cn1cnc(-c2ccc3c(c2)CN(C2CCC(=O)NC2=O)C3=O)c1-c1cnc2c(ccn2C)c1 (stereo not shown)  GSPT1 (Homo sapiens, UniProt P15170+Q96SW2)   ≥ 25 nM
 4  Cn1ncc(-c2ccc3c(c2)CN(C2CCC(=O)NC2=O)C3=O)c1-c1ccc2c(ccn2C)c1 (stereo not shown)  GSPT1 (Homo sapiens, UniProt P15170+Q96SW2)   ≥ 25 nM
 5  Cn1cnc(-c2ccc3c(c2)CN(C2CCC(=O)NC2=O)C3=O)c1-c1ccccc1N (stereo not shown)  GSPT1 (Homo sapiens, UniProt P15170+Q96SW2)   < 25 nM
 6  Cn1c(C2CC2)nc(-c2ccc3c(c2)CN(C2CCC(=O)NC2=O)C3=O)c1-c1cnc(C2CC2)nc1 (stereo not shown)  GSPT1 (Homo sapiens, UniProt P15170+Q96SW2)   ≥ 25 nM
 7  CCn1ncc(-c2ccc3c(c2)CN(C2CCC(=O)NC2=O)C3=O)c1-c1ccccc1 (stereo not shown)  GSPT1 (Homo sapiens, UniProt P15170+Q96SW2)   < 25 nM
 8  Cn1nccc1-c1c(-c2ccc3c(c2)CN(C2CCC(=O)NC2=O)C3=O)cnn1C (stereo not shown)  GSPT1 (Homo sapiens, UniProt P15170+Q96SW2)   ≥ 25 nM
 9  Cn1ncc(-c2ccc3c(c2)CN(C2CCC(=O)NC2=O)C3=O)c1-c1ccc2cccnc2c1 (stereo not shown)  GSPT1 (Homo sapiens, UniProt P15170+Q96SW2)   ≥ 25 nM
10  CC(C)Cn1cc(-c2c(-c3ccc4c(c3)CN(C3CCC(=O)NC3=O)C4=O)cnn2C)cn1 (stereo not shown)  GSPT1 (Homo sapiens, UniProt P15170+Q96SW2)   < 25 nM
11  Cn1ncc(-c2ccc3c(c2)CN(C2CCC(=O)NC2=O)C3=O)c1-c1ccc(N2CCOCC2)nc1 (stereo not shown)  GSPT1 (Homo sapiens, UniProt P15170+Q96SW2)   ≥ 25 nM
12  Cn1nc(-c2ccc3c(c2)CN(C2CCC(=O)NC2=O)C3=O)nc1N1CCCCC1 (stereo not shown)  GSPT1 (Homo sapiens, UniProt P15170+Q96SW2)   ≥ 25 nM
13  Cn1cnc(-c2ccc3c(c2)CN(C2CCC(=O)NC2=O)C3=O)c1-c1ccc2cnn(C)c2c1 (stereo not shown)  GSPT1 (Homo sapiens, UniProt P15170+Q96SW2)   < 25 nM
14  Cn1ncc(-c2ccc3c(c2)CN(C2CCC(=O)NC2=O)C3=O)c1-c1cnn(Cc2cccnc2)c1 (stereo not shown)  GSPT1 (Homo sapiens, UniProt P15170+Q96SW2)   ≥ 25 nM
15  Cn1c(C(F)F)nc(-c2ccc3c(c2)CN(C2CCC(=O)NC2=O)C3=O)c1-c1cncnc1 (stereo not shown)  GSPT1 (Homo sapiens, UniProt P15170+Q96SW2)   ≥ 25 nM

* * *

Target: GSPT1 (Homo sapiens, UniProt P15170+Q96SW2)
Assay: HiBiT degradation assay, GSPT1, Procedure B (Molt 4_hGSPT1_HiBIT cells)
Assay type: cell-based
Design: Molt 4_hGSPT1_HiBIT N-terminus tagged cells were generated using CRISPR technology; endogenous in cells; host or cells: Molt 4 cells, CRISPR-edited
Settings: six hours
Quantity name: DC50

>>> print(df.to_string())
                                   compound                         target_under_test  observed
0  Cn1nc(-c2ccc3c(c2)CN(C2CCC(=O)NC2=O)C3=O)nc1N1CCCC1 (stereo not shown) [Example 713]  GSPT1 (Homo sapiens, UniProt P15170+Q96SW2)   < 25 nM
1  O=C1CCC(N2Cc3cc(-c4cc(-c5ccccc5)n(CC(F)(F)F)n4)ccc3C2=O)C(=O)N1 (stereo not shown) [Example 710]  GSPT1 (Homo sapiens, UniProt P15170+Q96SW2)   < 25 nM
2  Cn1nc(-c2ccc3c(c2)CN(C2CCC(=O)NC2=O)C3=O)nc1-c1ccc(F)cc1 (stereo not shown) [Example 623]  GSPT1 (Homo sapiens, UniProt P15170+Q96SW2)   < 25 nM
3  Cn1cc(-c2ccc3c(c2)CN(C2CCC(=O)NC2=O)C3=O)nc1C12CC3CC(CC(C3)C1)C2 (stereo not shown) [Example 711]  GSPT1 (Homo sapiens, UniProt P15170+Q96SW2)   ≥ 25 nM

* * *

Biological target: CK1α (Homo sapiens, UniProt P48729+Q96SW2)
Construct: CSNK1A1-HiBit KI HEK293(LgBit) Cells; host or cells: HEK293(LgBit) knock-in cells
Sequence (P48729 whole entry, one chain of several): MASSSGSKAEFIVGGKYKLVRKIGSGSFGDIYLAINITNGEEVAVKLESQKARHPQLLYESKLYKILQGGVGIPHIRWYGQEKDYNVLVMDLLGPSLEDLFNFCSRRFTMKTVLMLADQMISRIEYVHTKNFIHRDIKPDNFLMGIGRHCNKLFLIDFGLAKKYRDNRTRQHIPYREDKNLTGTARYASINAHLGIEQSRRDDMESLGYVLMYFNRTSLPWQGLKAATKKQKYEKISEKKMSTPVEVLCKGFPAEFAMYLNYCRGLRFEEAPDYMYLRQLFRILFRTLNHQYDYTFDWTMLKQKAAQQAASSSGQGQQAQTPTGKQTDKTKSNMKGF
Experiment: HiBiT degradation assay, CK1α, Procedure A
Assay type: cell-based
Conditions: six hours incubation
Quantity name: CK1α Ymin

                                   molecule                 observed
0  CNC(=O)c1ccc(-c2c(-c3ccc4c(c3)CN(C3CCC(=O)NC3=O)C4=O)ncn2C)cc1 (stereo not shown) [Example 267]  C (C = 0-10% remaining)
1  O=C1CCC(N2Cc3cc(-c4nccn4-c4ccccc4)ccc3C2=O)C(=O)N1 (stereo not shown) [Example 7]  C (C = 0-10% remaining)

* * *

Entries annotated with measured DC50
Target: GSPT1 (Homo sapiens, UniProt P15170+Q96SW2)
Experiment: HiBiT degradation assay, GSPT1, Procedure A
Type: cell-based
Parameters: HiBit-GSPT1 KI HEK293(LgBit) Cells; host or cells: HEK293(LgBit) knock-in cells
Details: six hours incubation
Quantity name: DC50

>>> df
                                   compound  quantity_name  observed
0  Cn1ncc(-c2ccc3c(c2)CN(C2CCC(=O)NC2=O)C3=O)c1-c1cccc(Cl)c1 (centres unmarked) [Example 129]           DC50   ≥ 25 nM
1  O=C1CCC(N2Cc3cc(-c4cc(-c5ccccc5)no4)ccc3C2=O)C(=O)N1 (centres unmarked) [Example 43]           DC50   ≥ 25 nM
2  Cc1cccc(-c2c(-c3ccc4c(c3)CN(C3CCC(=O)NC3=O)C4=O)ncn2C)c1F (centres unmarked) [Example 171]           DC50   < 25 nM
3  O=C1CCC(N2Cc3cc(-c4cnn(C(F)(F)F)c4-c4ccccc4)ccc3C2=O)C(=O)N1 (centres unmarked) [Example 333]           DC50   ≥ 25 nM
4  Cn1ncc(-c2ccc3c(c2)CN(C2CCC(=O)NC2=O)C3=O)c1-c1ccc2c(c1)OCC2 (centres unmarked) [Example 155]           DC50   ≥ 25 nM
5  Cn1cnc(-c2ccc3c(c2)CN(C2CCC(=O)NC2=O)C3=O)c1-c1ccc(OCCCN2CCOCC2)cc1 (centres unmarked) [Example 359]           DC50   ≥ 25 nM
6  Cc1cccc(-c2c(-c3ccc4c(c3)CN(C3CCC(=O)NC3=O)C4=O)ncn2C)c1 (centres unmarked) [Example 162]           DC50   < 25 nM
7  O=C1CCC(N2Cc3cc(-n4nccc4-c4ccccc4)ccc3C2=O)C(=O)N1 (centres unmarked) [Example 33]           DC50   ≥ 25 nM
